Experiment: qHTS Assay for Identifying Gametocytocidal Compounds (AID 743244);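 note: % is set by controls: 0 for no effect and ±100 for the full control effect; actives lower the fluorescent signal which means gametocytes are killed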
Conditions: P. falciparum 3D7 stage III-V gametocytes, alamarBlue, 72 h; stronger effect = lower value
Description: Malaria cases and deaths have dropped 50% in 29 countries since 2000 due to the combined effects of long-lasting insecticidal bednets, indoor residual spraying, and artemisinin-based combination therapies (ACTs). […] Within live cells, the nonfluorescent resazurin is reduced to resorufin, a bright red fluorescence dye. Fluorescence decreases upon treatment of gametocytocidal compounds. […]
Inconclusive results are not listed.
quantity-name: max response (%)
Entry rule: numbers only, all in %.

Need max response, item C[C@H](CCC(=O)O)[C@H]1CC[C@H]2[C@@H]3[C@H](O)C[C@@H]4C[C@H](O)CC[C@]4(C)[C@H]3C[C@H](O)[C@]12C
-6.23

Look up max response: Cc1c(O)c(=O)ccn1C
2.04

Which max response reading was recorded for the molecule CC[C@@H]1/C=C(\C)C[C@H](C)C[C@H](OC)[C@H]2O[C@@](O)(C(=O)C(=O)N3CCCC[C@H]3C(=O)O[C@H](/C(C)=C/[C@@H]3CC[C@@H](Cl)[C@H](OC)C3)[C@H](C)[C@@H](O)CC1=O)[C@H](C)C[C@@H]2OC ?
-7.71

Item under review: CO[C@@]1(NC(=O)C2SC(=C(C(N)=O)C(=O)O)S2)C(=O)N2C(C(=O)O)=C(CSc3nnnn3C)CS[C@@H]21 (some centres undefined) . Reported max response?
10.6

What value of measured max response is listed for CCC(Oc1ccccc1)C(=O)N[C@@H]1C(=O)N2[C@@H]1SC(C)(C)[C@@H]2C(=O)O (some centres undefined) ?
14.1

Entry O=C(NNCS(=O)(=O)O)c1ccncc1 has what max response?
-7.51

Entry CCCCC(CC)COS(=O)(=O)O (centres undefined) has what max response?
-3.23

What measured max response goes with CS(=O)(=O)c1ccc([C@@H](O)[C@@H](COC(=O)CN)NC(=O)C(Cl)Cl)cc1 ?
0.65

If you can, please state the reported max response value of NC(=O)C1c2ccccc2CCc2ccccc21 .
-4.56
